B1: TPR t1 (parent)
chain: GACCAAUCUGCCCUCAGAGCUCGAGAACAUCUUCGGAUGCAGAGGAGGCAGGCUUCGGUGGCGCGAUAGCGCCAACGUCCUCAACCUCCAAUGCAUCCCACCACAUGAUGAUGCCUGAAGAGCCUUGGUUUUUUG

Variants of: B1
Assay: polymerase ribozyme fitness, log enrichment relative to wild type (log ratio); higher = more active; in vitro selection for triplet polymerase activity
Please use true (1) whenever polymerase ribozyme fitness (log ratio) is not below -4, and false (0) whenever it is.

Reference set (3 entries):
- Sequence Code: "GACCAAUCUGCCCUCAGAGCUCGAGAACAUCUUCGGAUGCAGAGGAGGCAGGCUUCGGUGGCGCGAUAGCGCCAACCUCCUCAACCUCCAAUGCAUCCCACCACAUGAUGAUGCAUGAAGAGCCUUGGUUUUUUG [G77C C115A]"
  Assigned Class: "true (1)"
- Sequence Code: "GACCAAUCUGCCCUCAGAGCCCGAGAACAUCUUCGGAUGCGGAAGAGGCAGGCUUCGGUGGCGCGAUAGCGCCAACGUCCUCAACCUCCAAUGCAUCUCACCACAUGAUGAUGCCUGAAGAGCCUUGGUUUUUUG [U21C A41G G44A C98U]"
  Assigned Class: "false (0)"
- Sequence Code: "GACCAAUCUGCCCUCAGAGCUCGAGAACAUCUUCGGAUGCAGAGGAGGCAGGCUUAGGUGGCGCGAUAGCACCAACGUCCUCAACCUCCAAUGCAUCCCUCCACAUGAUGAUGCCUGAAGAGCCUUGGUUUUUUG [C56A G71A A100U]"
  Assigned Class: "false (0)"

Exam item: decide whether the reported polymerase ribozyme fitness (log ratio) for GACCAAUCUGCCCUCUGAGCUCGAGAACAUCUUCGGAUGCAGAGGAGGCAGGCUUCGGUGGCGCGAUAGCGCCAACGUCCUCAACCUCCAAUGCAUCCCACCACAUGAUGAUGCCGGAAGAGCCUUGGUUUUUUG [A16U U116G] is at least -4.
true (1)

Now the variant GACCAAUCUGCCCUCAGAGCUCGAGAACAUCUUCGGAUGAAGAGGAGGCAGGCUUCGGUGGCGUGAUAGCGCCAACGUCCUCAACCUCCAAUGCAUCCCACCACAUGAUGAUGCCUGAAGAGCCUUGGUUUUUUG [C40A C64U]
true (1)

Now the variant GACCAAUUUGCCCCCAGAGCUCGAGAACAUCUUCGGAUGCAGAGGAGGCAGGCUUCGGUGGCGCGAUAGCGCCAACGCCCUCAACCUCCAAUGCAUCCCACCACAAGAUGAUGCCUGAAAAGCCUUGGUUUUUUG [C8U U14C U78C U106A G120A]
true (1)

Now the variant GACCAAUCUGCCCUCAGAGUUCGAGAACAUCUUCGGAUGCAGAGGAUGCAGGCUUCGGUGGCGCGAUAGCGCCAACGUCCUGAACCUCCAAUGCAUCCCACCACAUGAUGAUGCCUGAAGAGCCUUGGUUUUUUG [C20U G47U C82G]
false (0)
